- Tested on: 425362-245-T-J1 tumor spheroids, viability % test/control
- procedure_details: Anticancer human tumor 425362-245-T-J1 patient-derived melanoma cell line growth inhibition
- experimental_parameters: second compound 0.003 µM; first compound 3 µM; stronger effect = lower value; spheroids with HUVEC and MSC
Note to self: viability, T/C under 0.3% means class 1, ties and anything higher get class 0.

Lab note: confirm whether the reported viability, T/C for this compound is below 0.3%, equality not counting. compound: Cn1ncnc1[C@H]1c2n[nH]c(=O)c3cc(F)cc(c23)N[C@@H]1c1ccc(F)cc1 + COc1cc2c(cc1O)CCNC21CSC2c3c(OC(C)=O)c(C)c4c(c3C(COC1=O)N1C(O)C3Cc5cc(C)c(OC)c(O)c5C(C21)N3C)OCO4
class 0

Lab note: confirm whether the reported viability, T/C for this compound is below 0.3%, equality not counting. compound: Cn1ncnc1[C@H]1c2n[nH]c(=O)c3cc(F)cc(c23)N[C@@H]1c1ccc(F)cc1 + CC[C@@]1(O)C(=O)OCc2c1cc1n(c2=O)Cc2cc3c(CN(C)C)c(O)ccc3nc2-1
class 0

Lab note: confirm whether the reported viability, T/C for this compound is below 0.3%, equality not counting. compound: O=C(c1cc(Cc2n[nH]c(=O)c3ccccc23)ccc1F)N1CCN(C(=O)C2CC2)CC1 + COc1cc2c(cc1O)CCNC21CSC2c3c(OC(C)=O)c(C)c4c(c3C(COC1=O)N1C(O)C3Cc5cc(C)c(OC)c(O)c5C(C21)N3C)OCO4
class 1

Lab note: confirm whether the reported viability, T/C for this compound is below 0.3%, equality not counting. compound: CNCc1ccc(-c2cc(-c3nc(-c4ccc(S(=O)(=O)C(C)C)cc4)cnc3N)on2)cc1 + CC[C@@]1(O)C(=O)OCc2c1cc1n(c2=O)Cc2cc3c(CN(C)C)c(O)ccc3nc2-1
class 1

Lab note: confirm whether the reported viability, T/C for this compound is below 0.3%, equality not counting. compound: Cc1sc2c(c1C)C(c1ccc(Cl)cc1)=NC(CC(=O)Nc1ccc(O)cc1)c1nnc(C)n1-2 (stereo not given) + COc1cc2c(cc1O)CCNC21CSC2c3c(OC(C)=O)c(C)c4c(c3C(COC1=O)N1C(O)C3Cc5cc(C)c(OC)c(O)c5C(C21)N3C)OCO4
class 1

---

- System: 425362-245-T-J1 tumor spheroids, viability % test/control
- procedure_details: Anticancer human tumor 425362-245-T-J1 cell line growth inhibition;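 further: spheroids exposed to agents for 7 days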
- experimental_parameters: curve of first compound; second compound 0.0949 µM; spheroids with HUVEC and MSC
quantity_measured: IC50

Provide only the value of recorded IC50 for Cn1ncnc1[C@H]1c2n[nH]c(=O)c3cc(F)cc(c23)N[C@@H]1c1ccc(F)cc1 + CC[C@@]1(O)C(=O)OCc2c1cc1n(c2=O)Cc2cc3c(CN(C)C)c(O)ccc3nc2-1
< 9.49 nM

Provide only the value of recorded IC50 for O=C(c1cc(Cc2n[nH]c(=O)c3ccccc23)ccc1F)N1CCN(C(=O)C2CC2)CC1 + CC[C@@]1(O)C(=O)OCc2c1cc1n(c2=O)Cc2cc3c(CN(C)C)c(O)ccc3nc2-1
< 94.9 nM

Provide only the value of recorded IC50 for CC(C)n1c(=O)n(C)c2cnc3cc(F)c(-c4ccc(OCCCN5CCCCC5)nc4)cc3c21 + CC[C@@]1(O)C(=O)OCc2c1cc1n(c2=O)Cc2cc3c(CN(C)C)c(O)ccc3nc2-1
< 31.6 nM

Values compiled from PubChem BioAssay AID1845198.
